Data origin: patent US20140135270A1

Each entry below lists one item and its recorded pIC50 value.
target-or-test-system: His-BIR3 (241-356, XIAP) (Homo sapiens, UniProt P98170)
Construct: additions of His-BIR3 (241-356, XIAP), fluorescein labeled SMAC peptide
Sequence (P98170 241-356): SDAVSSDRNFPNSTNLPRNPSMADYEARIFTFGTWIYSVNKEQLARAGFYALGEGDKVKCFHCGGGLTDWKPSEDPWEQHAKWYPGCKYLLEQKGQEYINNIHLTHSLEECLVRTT
assay-explanation: XIAP-BIR3/SMAC Homogeneous Time Resolved Fluorescence (HTRF) Assay
condition-notes: fluorescein labeled SMAC peptide
The quantity pIC50 is defined as the negative base-10 logarithm of the molar concentration.

- smiles-record: "CN[C@@H](C)C(=O)N[C@@H](Cc1ccccc1)C(=O)N1C[C@@H]2C[C@H]1C(=O)N[C@@H](Cc1ccc3ccccc3c1)C(=O)N[C@H](C(=O)O)CCC(=O)N[C@H]1C[C@@H](C(=O)N[C@@H](Cc3ccc4ccccc4c3)C(=O)N[C@H](C(=O)O)Cc3ccc(cc3)OC/C=C/CO2)N(C(=O)[C@@H](NC(=O)[C@H](C)NC)C(C)(C)C)C1"
  result-number: 7.10
- smiles-record: "CN[C@@H](C)C(=O)N[C@H](C(=O)N1C[C@@H]2C[C@H]1C(=O)N[C@@H](Cc1ccc3ccccc3c1)C(=O)N[C@H](C(=O)O)CCC(=O)N[C@H]1C[C@@H](C(=O)N[C@@H](Cc3ccc4ccccc4c3)C(=O)N[C@H](C(=O)O)Cc3ccc(cc3)OC/C=C/CO2)N(C(=O)[C@@H](NC(=O)[C@H](C)NC)C(C)(C)C)C1)[C@H](C)O"
  result-number: 6.70

Consider now this further compound.
Query (compound): CN[C@@H](C)C(=O)N[C@H](C(=O)N1CC[C@H]2OC/C=C/CC[C@@H](C(=O)O)NC(=O)[C@H](Cc3ccc4ccccc4c3)NC(=O)[C@@H]3[C@@H](CCN3C(=O)[C@@H](NC(=O)[C@H](C)NC)C(C)(C)C)OCc3cn(nn3)[C@H](C(=O)O)CCNC(=O)[C@H](Cc3ccc4ccccc4c3)NC(=O)[C@H]21)C(C)(C)C ; field requested: pIC50 7.41

---

Each entry below lists one item and its recorded pIC50 value.
target-or-test-system: His-BIR2 (124-240/C202A/C213G) (Homo sapiens, UniProt P98170, C202A/C213G)
Construct: additions of His-BIR2 (124-240/C202A/C213G), Biotinylated SMAC peptide
Sequence (P98170 124-240 C202A/C213G): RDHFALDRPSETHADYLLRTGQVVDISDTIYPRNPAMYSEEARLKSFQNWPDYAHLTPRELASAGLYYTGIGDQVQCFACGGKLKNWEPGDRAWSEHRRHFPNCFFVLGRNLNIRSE
assay-explanation: XIAP-BIR2/SMAC Peptide AlphaScreen Assay
Assay type: binding
condition-notes: biotinylated SMAC peptide, read-out: BIR2 ALPHA IC50
Experimental: C. XIAP-BIR2/SMAC Peptide AlphaScreen Assay Assays were performed in white, flat-bottom, 384-well ProxiPlates (Perkin Elmer). […]. The reaction was incubated at room temperature for 60 minutes. […] The Alphascreen signal generated by the reaction was detected on the Envision Plate Reader. […] Biotinylated SMAC peptide, 4 μg/mL Alphascreen detection reagents, and 0.5% DMSO. […] Compounds were dissolved at 10 mM in dimethylsulfoxide (DMSO) and evaluated at eleven concentrations. […]
The quantity pIC50 is defined as the negative base-10 logarithm of the molar concentration.

Consider the worked cases shown below.
- smiles-record: "CN[C@@H](C)C(=O)N[C@H](C(=O)N1C[C@@H]2C[C@H]1C(=O)N[C@@H](Cc1ccc3ccccc3c1)C(=O)N[C@H](C(=O)O)COC/C=C/CO[C@H]1C[C@@H](C(=O)N[C@@H](Cc3ccc4ccccc4c3)C(=O)N[C@H](C(=O)O)CCCC(=O)N2)N(C(=O)[C@@H](NC(=O)[C@H](C)NC)C(C)(C)C)C1)C(C)(C)C"
  pIC50: 7.24
- smiles-record: "CN[C@@H](C)C(=O)N[C@H](C(=O)N1C[C@@H]2C[C@H]1C(=O)N[C@@H](Cc1ccc3ccccc3c1)C(=O)N[C@H](C(=O)O)C/C=C/CO[C@H]1C[C@@H](C(=O)N[C@@H](Cc3ccc4ccccc4c3)C(=O)N[C@H](C(=O)O)Cc3ccc(cc3)C(=O)N2)N(C(=O)[C@@H](NC(=O)[C@H](C)NC)C(C)(C)C)C1)C(C)(C)C"
  pIC50: 7.35

Consider now this further compound.
Query (compound): CN[C@@H](C)C(=O)N[C@H](C(=O)N1C[C@@H]2C[C@H]1C(=O)N[C@@H](Cc1ccc3ccccc3c1)C(=O)N[C@H](C(=O)O)C/C=C/CO[C@H]1C[C@@H](C(=O)N[C@@H](Cc3ccc4ccccc4c3)C(=O)N[C@H](C(=O)O)CC(=O)N2)N(C(=O)[C@@H](NC(=O)[C@H](C)NC)C(C)(C)C)C1)C(C)(C)C ; field requested: pIC50 6.83

---

target-or-test-system: His-BIR3 (241-356, XIAP) (Homo sapiens, UniProt P98170)
Construct: additions of His-BIR3 (241-356, XIAP), fluorescein labeled SMAC peptide
assay-explanation: XIAP-BIR3/SMAC Homogeneous Time Resolved Fluorescence (HTRF) Assay
condition-notes: fluorescein labeled SMAC peptide
measure-name: pIC50
The quantity pIC50 is defined as the negative base-10 logarithm of the molar concentration.

- compound: "CC[C@H](NC(=O)[C@H](C)NC)C(=O)N1C[C@@H]2C[C@H]1C(=O)N[C@@H](C)C(=O)N[C@H](C(=O)O)Cc1ccc(cc1)C(=O)N[C@H]1C[C@@H](C(=O)N[C@@H](Cc3ccc4ccccc4c3)C(=O)N[C@H](C(=O)O)Cc3ccc(cc3)OC/C=C/CO2)N(C(=O)[C@@H](NC(=O)[C@H](C)NC)C(C)(C)C)C1 [Example 45]"
  target-or-test-system: "His-BIR3 (241-356, XIAP) (Homo sapiens, UniProt P98170)"
  measure-name: "pIC50"
  result-number: 6.98

Query (compound): CN[C@@H](C)C(=O)N[C@H](C(=O)N1C[C@@H]2C[C@H]1C(=O)N[C@@H](Cc1ccc3ccccc3c1)C(=O)N[C@H](C(=O)O)Cc1ccc(cc1)OC/C=C/CO[C@H]1C[C@@H](C(=O)N[C@@H](Cc3ccc(-c4ccc(O)cc4)cc3)C(=O)N[C@H](C(=O)NS(=O)(=O)C3CC3)Cc3ccc(cc3)OCc3cn2nn3)N(C(=O)[C@@H](NC(=O)[C@H](C)NC)C(C)(C)C)C1)C(C)(C)C [Example 113] ; field requested: pIC50 7.87

Query (compound): CN[C@@H](C)C(=O)N[C@H](C(=O)N1CC[C@H]2OCc3cn(nn3)CC[C@@H](C(=O)OC)NC(=O)[C@H](Cc3ccc4ccccc4c3)NC(=O)[C@@H]3[C@@H](CCN3C(=O)[C@@H](NC(=O)[C@H](C)NC)C(C)(C)C)OC/C=C/COc3ccc(cc3)C[C@@H](C(=O)O)NC(=O)[C@H](Cc3ccc4ccccc4c3)NC(=O)[C@H]21)C(C)(C)C [Example 17] ; field requested: pIC50 8.74

---

target-or-test-system: His-BIR2-3 (125-356, C202A/C213G, XIAP) (Homo sapiens, UniProt P98170, C202A/C213G)
Construct: additions of His-BIR2-3 (125-356, C202A/C213G, XIAP), fluorescein labeled dimeric SMAC peptide
Sequence (P98170 125-356 C202A/C213G): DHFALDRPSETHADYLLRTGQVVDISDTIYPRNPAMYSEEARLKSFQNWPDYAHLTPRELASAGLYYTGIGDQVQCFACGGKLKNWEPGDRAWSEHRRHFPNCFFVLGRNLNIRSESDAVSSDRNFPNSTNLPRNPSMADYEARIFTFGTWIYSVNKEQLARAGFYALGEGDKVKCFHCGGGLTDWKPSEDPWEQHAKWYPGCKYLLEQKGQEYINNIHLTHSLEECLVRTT
assay-explanation: XIAP-BIR2-3 Dimeric SMAC Peptide Homogeneous Time Resolved Fluorescence (HTRF) Assay
condition-notes: fluorescein labeled dimeric SMAC peptide
measure-name: pIC50
The quantity pIC50 is defined as the negative base-10 logarithm of the molar concentration.

- molecule: "CN[C@@H](C)C(=O)N[C@H](C(=O)N1C[C@@H]2C[C@H]1C(=O)NC(Cc1ccc3ccccc3c1)C(=O)N[C@H](C(=O)NS(=O)(=O)C1CC1)Cc1ccc(cc1)OCCCC[C@H]1C[C@@H](C(=O)N[C@@H](Cc3ccc4ccccc4c3)C(=O)N[C@H](C(=O)NS(=O)(=O)C3CC3)Cc3ccc(cc3)OCc3cn2nn3)N(C(=O)[C@@H](NC(=O)[C@H](C)NC)C(C)(C)C)C1)C(C)(C)C (some centres unmarked) [Example 100]"
  measure-name: "pIC50"
  result-number: 8.38

Query (molecule): CN[C@@H](C)C(=O)N[C@H](C(=O)N1CC[C@@H]2OC/C=C/COc3ccc(cc3)C[C@@H](C(=O)O)NC(=O)[C@H](Cc3ccc4ccccc4c3)NC(=O)[C@@H]3[C@@H](CCN3C(=O)[C@@H](NC(=O)[C@H](C)NC)C(C)(C)C)OCc3cn(nn3)CCC[C@@H](C(=O)O)NC(=O)[C@H](Cc3ccc4ccccc4c3)NC(=O)[C@H]21)C(C)(C)C [Example 11] ; field requested: pIC50 8.64

---

target-or-test-system: His-BIR3 (241-356, XIAP) (Homo sapiens, UniProt P98170)
Construct: additions of His-BIR3 (241-356, XIAP), fluorescein labeled SMAC peptide
assay-explanation: XIAP-BIR3/SMAC Homogeneous Time Resolved Fluorescence (HTRF) Assay
Format: binding
condition-notes: fluorescein labeled SMAC peptide
measure-name: pIC50
The quantity pIC50 is defined as the negative base-10 logarithm of the molar concentration.

Query (compound): CN[C@@H](C)C(=O)N[C@H](C(=O)N1C[C@@H]2C[C@H]1C(=O)NC(Cc1ccc3ccccc3c1)C(=O)N[C@H](C(=O)NS(=O)(=O)CCCO)Cc1ccc(cc1)OC/C=C/C[C@H]1C[C@@H](C(=O)N[C@@H](Cc3ccc4ccccc4c3)C(=O)N[C@H](C(=O)O)Cc3ccc(cc3)OCc3cn2nn3)N(C(=O)[C@@H](NC(=O)[C@H](C)NC)C(C)(C)C)C1)C(C)(C)C (stereo partly shown) [Example 94] ; field requested: pIC50 8.68

Query (compound): CN[C@@H](C)C(=O)N[C@@H](CC(=O)O)C(=O)N1C[C@@H]2C[C@H]1C(=O)N[C@@H](Cc1ccc3ccccc3c1)C(=O)N[C@H](C(=O)O)Cc1ccc(cc1)C(=O)N[C@H]1C[C@@H](C(=O)N[C@@H](Cc3ccc4ccccc4c3)C(=O)N[C@H](C(=O)O)Cc3ccc(cc3)OC/C=C/CO2)N(C(=O)[C@@H](NC(=O)[C@H](C)NC)C(C)(C)C)C1 [Example 64] ; field requested: pIC50 7.44

Query (compound): CC(C)[C@H](NC(=O)[C@H](C)N(C)C(=O)OC(C)(C)C)C(=O)N[C@H]1C/C=C/CC[C@@H](C(=O)O)NC(=O)[C@H](Cc2ccccc2)NC(=O)[C@@H]2CN(CCNC(=O)CC[C@@H](C(=O)OC(C)(C)C)NC(=O)[C@H](Cc3ccccc3)NC1=O)CCN2C(=O)[C@@H](NC(=O)[C@H](C)N(C)C(=O)OC(C)(C)C)C(C)C [Example 82] ; field requested: pIC50 5.96

Query (compound): CN[C@@H](C)C(=O)N[C@H](C(=O)N1C[C@@H]2C[C@H]1C(=O)N[C@@H](Cc1ccc3ccccc3c1)C(=O)N[C@H](C(=O)O)Cc1ccc(cc1)OC/C=C/CO[C@H]1C[C@@H](C(=O)N[C@@H](C(c3ccccc3)c3ccccc3)C(=O)N[C@H](C(=O)O)Cc3ccc(cc3)C(=O)N2)N(C(=O)[C@@H](NC(=O)[C@H](C)NC)C(C)(C)C)C1)C(C)(C)C [Example 62] ; field requested: pIC50 7.22
